# target-or-system: codon 74 (ddI-resistant) mutant RT (Human immunodeficiency virus type 1 group M subtype B, UniProt P04585, L661V)
# Construct: Wild-type and mutant RT genes of these clones were subcloned into a bacterial expression vector (pKRT2); made in house; host or cells: E. coli
# assay: Heteropolymeric RNA template RT hybridization assay, inhibition of codon 74 mutant RT (Example 2)
# Type: biochemical, HIV-1
# details: Mutant 74 RT; 5 cases; 0.5 mM dNTPs; read-out: Maximum (IC50)
recorded-metric: IC50 (µM)
Please reply with the bare figure in µM and do not write the unit itself.

Endpoint output: IC50 of Nc1ncnc2c1ncn2[C@H]1CC[C@@H](COP(=O)(O)OP(=O)(O)OP(=O)(O)O)O1 [ddATP] . Value? 29.4

Where these numbers come from: patent US6316182A
